Source listed as ChEMBL document CHEMBL1201862.

test system: M14; assay: NCI tumour cell line growth inhibition, 48 h
Activity calls are given as the source filed them. No stated cut-off is given here; in the data, active = GI50 up to about 1.1 µM and inactive = higher.
Readings of GI50 for the listed compounds

Use the examples below as a reference point.
O=C1CCC(=O)N1Sc1ccccc1 ... > 100 µM (inactive)
CC(=O)C(C)CCOC1(C)OCCC1C (stereo unspecified) ... > 100 µM (inactive)
O=C(c1ccccc1)n1cc(-c2ccccc2)c2c(=O)nc[nH]c21 ... > 100 µM (inactive)
CC(C)(C)OC(=O)NNC(=O)C1Cc2ccccc2OC1=O (stereo unspecified) ... > 100 µM (inactive)
CC(=O)O[C@H]1CC[C@@]2(C)C(=CC[C@@H]3[C@@H]2CC[C@]2(C)C(=N/O)/C(=C\c4ccccc4)C[C@@H]32)C1 ... 4.9 µM (inactive)

Request: Query GI50 for COc1ccc(CCN2CCC(C#N)(c3ccc(OC)c(OC)c3)CC2)cc1OC
Result: > 100 µM (inactive)

Request: Provide measured GI50 value, entry: O=C1CN2CCN(CC2)CC(=O)Nc2ccc(cc2)S(=O)(=O)c2ccc(cc2)NC(=O)CN2CCN(CC2)CC(=O)Nc2ccc(cc2)S(=O)(=O)c2ccc(cc2)N1
Result: 25.4 µM (inactive)

Request: Identify measured GI50 corresponding to S=c1oc(CCCCCCCCc2nn(CNc3ccc(Cl)cc3)c(=S)o2)nn1CNc1ccc(Cl)cc1
Result: 12 µM (inactive)

Request: Entry COc1ccc(N(CN2C(=O)CCC2OC)C(C)=O)cc1 (stereo unspecified) needs its GI50 filled in; supply it.
Result: > 100 µM (inactive)

Request: Check the records and state GI50 for CCOc1cc2c[n+](C)c3c4cc(OC)c(OC)cc4ccc3c2cc1OC
Result: > 100 µM (inactive)

Request: Respond only with GI50 recorded for O=c1c(-c2ccccc2)c(SCCO)n(-c2ccccc2)c(=S)n1-c1ccccc1
Result: > 100 µM (inactive)

* * *

Recorded GI50, one value per entry.
tested on: TK-10; assay: NCI tumour cell line growth inhibition, 48 h
Activity calls are given as the source filed them. Cut-off read from the data, not from the text of the source: active = GI50 up to about 1.1 µM and inactive = higher.

# example entries with known answers
N#CC1CCN2N=C(c3ccccc3)SC12c1ccccc1 (stereo not given) ... > 100 µM (inactive)
CC(C)(C)OC(=O)NNC(=O)C1Cc2ccccc2OC1=O (stereo not given) ... > 100 µM (inactive)
CC(C)c1cccc(C(C)C)c1NC(=O)C(=O)CC(=O)CC(c1ccccc1)c1c(O)oc2ccccc2c1=O (stereo not given) ... > 100 µM (inactive)

Request: Tell me GI50 reported for COc1cc(C2c3cc4c(cc3[C@@H](NCCN3CCOCC3)C3COC(=O)[C@H]23)OCO4)cc(OC)c1O (stereo not given in full)
Result: 7.85 µM (inactive)

Request: Give the value of GI50 reported for the following: CC(=O)C1=C(C)Cn2c(=O)c3ccccc3c(=O)n2C1
Result: > 100 µM (inactive)

* * *

Below, each entry is listed with its recorded GI50.
test system: HL-60; assay: NCI tumour cell line growth inhibition, 48 h
Activity calls are given as the source filed them. Rule as the data show it: active = GI50 up to about 1.1 µM and inactive = higher.

C=C(C)[C@@H]1CC[C@]2(C(=O)O)CC[C@]3(C)[C@H](CC[C@@H]4[C@@]5(C)CC[C@H](C(=O)/C=C/c6ccc(O)cc6)C(C)(C)[C@@H]5CC[C@]43C)[C@@H]12 ... 1.15 µM (inactive)
C=CCN(N=O)C(=O)N(CCCC(NC(C)=O)C(=O)NCc1ccccc1)Cc1ccccc1 (stereo not given) ... 19.6 µM (inactive)
Cc1c2cccc-2ccc2c1[nH]c1ccc(Br)cc12 ... 4.15 µM (inactive)
COc1ccc2c(c1)[n+]([O-])c(-c1ccc(Br)cc1)c(N)[n+]2[O-] ... 21.1 µM (inactive)
Cc1cc(=O)[nH]c(-n2[nH]c(C)c(CCO)c2=O)n1 ... > 100 µM (inactive)
COc1ccc(NC(=O)COC(=O)c2cccc3c(=O)c4ccccc4[nH]c23)cc1 ... 13.1 µM (inactive)

Request: Quote GI50 reported for Cc1ccc([N+](=O)[O-])c2c(NCC(O)CO)ccnc12 (stereo not given) please.
Result: 32.7 µM (inactive)

Request: Give the reported GI50 for this compound. Cc1ccc(C)c(NC(=O)C(=O)C2C(=O)N(c3ccccc3)N=C2N)c1 (stereo not given)
Result: 31.7 µM (inactive)

Request: Please report the measured GI50 for c1cc2nnc1SCCSCCSc1ccc(nn1)SCCSCCS2
Result: > 100 µM (inactive)
